Where these numbers come from: patent US20090047246A1

Entries and their IC50 values follow.
- system-tested: HCV NS3 helicase (Hepatitis C virus genotype 1b, UniProt P26663)
- Construct: full-length NS3 (1-631), purified at Array BioPharma
- Sequence (P26663 1027-1657): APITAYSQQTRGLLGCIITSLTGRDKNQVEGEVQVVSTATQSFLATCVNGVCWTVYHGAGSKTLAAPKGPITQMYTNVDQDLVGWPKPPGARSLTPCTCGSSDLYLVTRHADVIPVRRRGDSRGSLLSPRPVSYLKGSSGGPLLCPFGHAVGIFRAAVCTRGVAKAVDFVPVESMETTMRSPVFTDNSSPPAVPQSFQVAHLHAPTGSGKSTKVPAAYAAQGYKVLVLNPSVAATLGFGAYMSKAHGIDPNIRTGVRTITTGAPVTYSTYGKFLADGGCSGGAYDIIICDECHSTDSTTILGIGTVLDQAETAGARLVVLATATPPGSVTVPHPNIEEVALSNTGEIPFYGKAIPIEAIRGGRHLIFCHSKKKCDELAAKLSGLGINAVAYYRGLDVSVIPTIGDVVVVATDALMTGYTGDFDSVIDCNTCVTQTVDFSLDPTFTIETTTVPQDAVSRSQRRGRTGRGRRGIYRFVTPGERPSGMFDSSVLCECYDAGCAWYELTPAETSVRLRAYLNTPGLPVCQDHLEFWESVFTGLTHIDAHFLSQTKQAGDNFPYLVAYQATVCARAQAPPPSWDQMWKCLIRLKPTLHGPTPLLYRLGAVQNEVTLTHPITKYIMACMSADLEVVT
- assay-procedure: HCV Helicase Prompt FRET Assay (Example A)
- Assay type: biochemical
- measurement-context: HCV NS3 helicase; tables do not say whether Example A or Example B assay; read-out: IC50 Activity
measured-quantity: IC50

| compound | recorded-measurement |
| --- | --- |
| O=C(O)C(Cc1csc2ccc(Cl)cc12)c1cn(Cc2csc3ccc(Cl)cc23)c2cc(-c3ccco3)ccc12 (centres unmarked) | < 10 µM |
| Cc1cc(NC(=O)Cc2ccccc2)ccc1-n1cc(CC(=O)O)c2ccccc21 | 10 to 50 µM |
| O=C(O)Cc1c(Cc2ccc(-c3ccccc3Br)cc2)[nH]c2ccccc12 | < 10 µM |
| Cc1ccccc1-c1ccc(-n2cc(CC(=O)O)c3ccccc32)cc1 | < 10 µM |
| COc1ccc2scc(Cn3cc(CC(=O)O)c4cc(Br)ccc43)c2c1 | < 10 µM |
| COC(=O)C(Cc1ccccc1)c1cn(-c2ccc([N+](=O)[O-])cc2C)c2ccc(Br)cc12 (centres unmarked) | > 50 µM |
| CN(Cc1ccccc1)c1ccc(-n2c(C(=O)c3ccc(-c4ccc(Cl)c(Cl)c4)cc3)c(CC(=O)O)c3ccccc32)cc1 | 10 to 50 µM |
| O=C(O)Cc1c(C(=O)c2ccc(-c3ccccc3)cc2)sc2ccccc12 | < 10 µM |

###

- system-tested: HCV NS3 helicase (Hepatitis C virus genotype 1b)
- Construct: full-length NS3 (1-631), purified at Array BioPharma
- assay-procedure: HCV Helicase Prompt FRET Assay (Example A)
- Type: biochemical
- measurement-context: Table 32, compounds made using Schemes 46-49; read-out: IC50 Activity

| compound | IC50 |
| --- | --- |
| NC(=O)c1sccc1-c1ccc2c(CC(=O)O)cn(Cc3csc4ccc(Cl)cc34)c2c1 [Example 661] | 10 to 50 µM |
| N#Cc1ccc2c(CC(=O)O)cn(Cc3csc4ccc(Cl)cc34)c2c1 [Example 663] | 10 to 50 µM |
| CC(C)(C)OC(=O)Nc1nnc(-c2ccc3c(CC(=O)O)cn(Cc4csc5ccc(Cl)cc45)c3c2)s1 [Example 658] | < 10 µM |
| CC(C)(C)OC(=O)Nc1ncc(-c2ccc3c(CC(=O)O)cn(Cc4csc5ccc(Cl)cc45)c3c2)s1 [Example 657] | < 10 µM |

###

Entries and their IC50 values follow.
- system-tested: HCV NS3 helicase (Hepatitis C virus genotype 1b, UniProt P26663)
- Construct: full-length NS3 (1-631), purified at Array BioPharma
- assay-procedure: HCV Helicase Prompt FRET Assay (Example A)
- Format: biochemical
- measurement-context: HCV NS3 helicase; tables do not say whether Example A or Example B assay; read-out: IC50 Activity
measured-quantity: IC50

| compound | measured-quantity | recorded-measurement |
| --- | --- | --- |
| CCOC(=O)Cc1cn(Cc2ccc(Oc3cccc(OCC)c3)cc2)c2cc(-c3cccc(OC(C)=O)c3)ccc12 | IC50 | > 50 µM |
| O=C(O)Cc1cn(Cc2cccc(OCc3ccccc3)c2)c2ccc(Br)cc12 | IC50 | < 10 µM |
| COC(=O)C(c1ccc([N+](=O)[O-])cc1C)C1CN(c2ccc([N+](=O)[O-])cc2C)c2ccc(Br)cc21 (stereo not shown) | IC50 | 10 to 50 µM |
| O=C(O)Cc1c(C(=O)c2ccc(-c3ccccc3Cl)cc2)[nH]c2ccccc12 [Example 254] | IC50 | < 10 µM |
| CCOC(=O)Cc1cn(Cc2ccc(Oc3cccc(Cl)c3)cc2)c2cc(-c3cccc(OC(C)=O)c3)ccc12 | IC50 | > 50 µM |
| O=C(O)Cc1c(Cc2csc3ccc(Cl)cc23)n(Cc2csc3ccc(Cl)cc23)c2cc(OCc3ccccc3)ccc12 | IC50 | < 10 µM |
| O=C(O)Cc1cn(Cc2cccc(Br)c2)c2ccc(OCc3ccccc3)cc12 | IC50 | 10 to 50 µM |
| O=C(O)Cc1cn(Cc2cccc(Oc3cc(Cl)cc(Cl)c3)c2)c2ccccc12 | IC50 | < 10 µM |
| O=C(O)Cc1cn(Cc2cccc(-c3cccnc3)c2)c2ccc(OCc3ccccc3)cc12 | IC50 | 10 to 50 µM |
| Cc1cc([N+](=O)[O-])ccc1-n1cc(C(CC2CC2)C(=O)O)c2ccccc21 (stereo not shown) | IC50 | 10 to 50 µM |
| O=C(O)Cc1c(Cc2ccc(-c3ccccc3F)cc2)[nH]c2ccccc12 | IC50 | 10 to 50 µM |
| Nc1cc(-c2ccc3c(CC(=O)O)cn(Cc4csc5ccc(Cl)cc45)c3c2)ccn1 | IC50 | 10 to 50 µM |
| O=C(O)Cc1cn(Cc2ccc(Oc3cccc(C(F)(F)F)c3)cc2)c2ccccc12 | IC50 | < 10 µM |
| O=C(O)Cc1cn(Cc2csc3ccc(Cl)cc23)c2c(Oc3ccc([N+](=O)[O-])cc3)cccc12 | IC50 | < 10 µM |
| Cc1ccc(CNC(=O)c2c(CC(=O)O)c3cc(Br)ccc3n2Cc2ccc(C(C)C)cc2)o1 | IC50 | 10 to 50 µM |
| CC(C)c1ccc(Cn2c(C(=O)Nc3ccccc3)c(CC(=O)O)c3cc(Br)ccc32)cc1 | IC50 | < 10 µM |

###

- system-tested: HCV NS3 helicase (Hepatitis C virus genotype 1b, UniProt P26663)
- Construct: full-length NS3 (1-631), purified at Array BioPharma
- assay-procedure: HCV Helicase Prompt FRET Assay (Example A)
- Assay type: biochemical
- measurement-context: HCV NS3 helicase; tables do not say whether Example A or Example B assay; read-out: IC50 Activity
measured-quantity: IC50

| compound-string | recorded-measurement |
| --- | --- |
| O=C(O)Cc1c(Cc2cccc(-c3ccc(Cl)cc3Cl)c2)oc2ccccc12 | < 10 µM |
| O=C(O)Cc1c(C(=O)c2ccc(-c3ccccc3)cc2)oc2ccccc12 | 10 to 50 µM |
| CN(c1ccc(C(F)(F)F)cc1)c1cccc(Cn2cc(CC(=O)O)c3ccccc32)c1 | < 10 µM |
| O=C(O)Cc1c(C(=O)c2cccc(-c3cccc(C(F)(F)F)c3)c2)[nH]c2ccccc12 | 10 to 50 µM |
| O=C(O)Cc1cn(Cc2cccc(Oc3ccccc3C(F)(F)F)c2)c2ccccc12 | < 10 µM |
| CN(c1cccc(Cl)c1)c1cccc(Cn2cc(CC(=O)O)c3ccccc32)c1 | < 10 µM |
| O=C(O)Cc1cn(Cc2cc(F)cc(C(F)(F)F)c2)c2ccc(Br)cc12 | 10 to 50 µM |
| CC(C)c1cccc(-c2cccc(C(=O)c3oc4ccccc4c3CC(=O)O)c2)c1 | < 10 µM |
| O=C(O)Cc1cn(-c2ccc(-c3cc(Cl)cc(Cl)c3)cc2)c2ccccc12 | < 10 µM |
| O=C(O)c1cccc2[nH]c3ccccc3c12 | > 50 µM |
| CC(=O)Nc1cccc(-c2ccc(Cc3[nH]c4ccccc4c3CC(=O)O)cc2)c1 | 10 to 50 µM |
| O=C(O)Cc1c(Cc2ccc(-c3ccccc3)cc2)[nH]c2ccccc12 | < 10 µM |
| O=C(O)Cc1cn(Cc2ccc(Oc3ccc(Cl)cc3Cl)cc2)c2ccccc12 | < 10 µM |
| O=C(O)Cc1cn(Cc2csc3ccc(Cl)cc23)c2cc(-c3ccnc(NCCO)c3)ccc12 | < 10 µM |

###

Entries and their IC50 values follow.
- system-tested: HCV NS3 helicase (Hepatitis C virus genotype 1b)
- Construct: full-length NS3 (1-631), purified at Array BioPharma
- assay-procedure: HCV Helicase Prompt FRET Assay (Example A)
- Format: biochemical
- measurement-context: HCV NS3 helicase; tables do not say whether Example A or Example B assay; read-out: IC50 Activity

| molecule | IC50 |
| --- | --- |
| CN(c1cccc(Cn2cc(CC(=O)O)c3ccccc32)c1)c1cccc(Cl)c1Cl [Example 537] | < 10 µM |
| O=C(O)C(Cc1ccccc1)c1cn(Cc2csc3ccc(Cl)cc23)c2cc(OCc3ccccc3)ccc12 (centres unmarked) [Example 351] | < 10 µM |
| O=C(O)C(Cc1csc2ccc(Cl)cc12)c1cn(Cc2csc3ccc(Cl)cc23)c2cc(Br)ccc12 (centres unmarked) [Example 360] | < 10 µM |
| Oc1cc(Cc2cn(Cc3csc4ccc(Cl)cc34)c3ccccc23)n[nH]1 [Example 213] | 10 to 50 µM |
| CC(C)c1ccc(Cn2cc(CC(=O)O)c3ccccc32)cc1 [Example 424] | 10 to 50 µM |
| Cc1cc(NC(=O)Cc2cccs2)ccc1-n1cc(CC(=O)O)c2ccccc21 [Example 157] | 10 to 50 µM |
| CC(CO)N(Cc1ccccc1)c1ccc(-n2cc(CC(=O)O)c3ccccc32)cc1 (centres unmarked) [Example 172] | < 10 µM |
| O=C(Cc1cn(Cc2cccc(OCc3ccccc3)c2)c2ccc(OCc3ccccc3)cc12)NCC1CC1 [Example 190] | 10 to 50 µM |
| O=C(Cc1cn(Cc2csc3ccc(Cl)cc23)c2ccccc12)NS(=O)(=O)C1CC1 [Example 198] | 10 to 50 µM |
| CN(c1cccc(Cn2cc(CC(=O)O)c3ccccc32)c1)c1ccccc1Cl [Example 523] | < 10 µM |
| O=C(O)Cc1cn(Cc2ccc(Oc3ccc(C(F)(F)F)cc3)cc2)c2ccccc12 [Example 504] | < 10 µM |
| O=C(O)Cc1cn(Cc2cccc(Oc3ccc(F)cc3)c2)c2ccccc12 [Example 474] | < 10 µM |
| O=C(O)Cc1cn(Cc2ccc(Oc3ccc(Cl)cc3)cc2)c2ccccc12 [Example 498] | < 10 µM |
| CS(=O)(=O)c1ccc(-n2cc(CP(=O)(O)O)c3cc(Br)ccc32)cc1 [Example 314] | 10 to 50 µM |
| Cc1ccccc1CN(C)c1ccc(-n2cc(CC(=O)O)c3ccccc32)cc1 [Example 181] | < 10 µM |
| COC(=O)C(Cc1ccc(C(C)C)cc1)c1cn(-c2ccc([N+](=O)[O-])cc2C)c2ccc(Br)cc12 (centres unmarked) [Example 407] | > 50 µM |
| O=C(O)Cc1c(C(=O)c2cccc(-c3ccccc3Cl)c2)[nH]c2ccccc12 [Example 234] | 10 to 50 µM |
